// data source = patent US20050020576A1

target: UniProt P41145; assay: biochemical; assay type: binding; conditions: Ki, nM 3H-Diprenorphin
Sequence (P41145 whole entry): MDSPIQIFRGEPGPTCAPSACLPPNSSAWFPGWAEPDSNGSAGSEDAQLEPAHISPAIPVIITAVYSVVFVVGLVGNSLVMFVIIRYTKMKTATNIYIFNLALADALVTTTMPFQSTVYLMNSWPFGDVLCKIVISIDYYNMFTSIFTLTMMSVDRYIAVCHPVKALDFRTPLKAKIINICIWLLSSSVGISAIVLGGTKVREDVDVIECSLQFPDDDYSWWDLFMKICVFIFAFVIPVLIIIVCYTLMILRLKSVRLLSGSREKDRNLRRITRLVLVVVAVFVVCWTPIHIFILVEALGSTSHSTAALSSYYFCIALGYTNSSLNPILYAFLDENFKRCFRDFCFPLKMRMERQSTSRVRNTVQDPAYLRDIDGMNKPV
Counter-ions that a name gives are not always drawn.
VALUE_TYPE: Ki (nM)
# value in nM; strip the unit string

Request the reported Ki associated with CS(=O)(=O)N1CCN(C(=O)Cc2ccc(Cl)c(Cl)c2)C(CN2CC[C@H](OC(=O)Cc3ccc(Cl)c(Cl)c3)C2)C1 (some centres unmarked) [Example 1kk, hydrochloride]
5.1

Consider the compound COC(=O)N1CCN(C(=O)Cc2c[nH]c3ccccc23)C(CN2CCCC2)C1 (racemic) [(R,S-9c), hydrochloride] and give its measured Ki.
3

Reported Ki, compound CNS(=O)(=O)c1ccccc1CC(=O)N1CCN(C(=O)OC)CC1CN1CCCC1 (racemic) [Example 1e, hydrochloride] : ____
14

So what's the measured Ki for this one? CS(=O)(=O)N1CCN(C(=O)Cc2ccc(C(F)(F)F)cc2)C(CN2CC[C@H](O)C2)C1 (some centres unmarked) [Example 1nn, hydrochloride]
2.33

Record request: Ki value, item O=C(Cc1ccc(C(F)(F)F)cc1)N1CCN(C(=O)C(F)(F)F)CC1CN1CCCC1 (racemic) [Example 1h, hydrochloride]
50
